Listing of recorded DC50 by entry.
Measured on: B-RAF V600E (Homo sapiens, UniProt P15056, V600E)
Construct: expressed in transfected cells; host or cells: T-Rex 293 cells (Invitrogen #R71007)
Sequence (P15056 whole entry V600E): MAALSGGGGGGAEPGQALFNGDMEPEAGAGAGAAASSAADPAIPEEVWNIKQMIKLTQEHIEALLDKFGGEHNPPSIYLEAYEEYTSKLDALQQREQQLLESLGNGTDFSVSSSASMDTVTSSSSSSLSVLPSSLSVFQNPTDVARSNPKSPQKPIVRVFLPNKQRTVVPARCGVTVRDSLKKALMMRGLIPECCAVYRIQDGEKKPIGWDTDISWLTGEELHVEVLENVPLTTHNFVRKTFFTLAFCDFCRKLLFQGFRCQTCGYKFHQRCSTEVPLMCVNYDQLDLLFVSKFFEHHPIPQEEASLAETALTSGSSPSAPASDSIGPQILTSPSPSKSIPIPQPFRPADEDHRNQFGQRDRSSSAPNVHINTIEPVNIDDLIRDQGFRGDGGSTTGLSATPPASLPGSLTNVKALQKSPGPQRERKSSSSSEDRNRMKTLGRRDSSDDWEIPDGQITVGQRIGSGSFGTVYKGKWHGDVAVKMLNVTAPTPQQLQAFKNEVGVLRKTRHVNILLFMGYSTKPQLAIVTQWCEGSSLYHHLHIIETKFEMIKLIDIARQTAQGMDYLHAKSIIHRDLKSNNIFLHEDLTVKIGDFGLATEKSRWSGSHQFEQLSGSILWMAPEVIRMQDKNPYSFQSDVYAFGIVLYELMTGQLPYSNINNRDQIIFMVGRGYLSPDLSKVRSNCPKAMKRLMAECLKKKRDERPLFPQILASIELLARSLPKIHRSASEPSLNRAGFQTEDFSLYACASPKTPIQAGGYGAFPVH
Assay method text: Target protein degradation, assay C: T-Rex 293 cells, HA-BRAF_V600E, 384 well format
Assay type: cell-based
Measurement setup: Assay C, T-Rex 293 HA-BRAF_V600E cells, 24 hours, Examples 83-269

Recorded results for 6 molecules are shown here.
Molecule	DC50
N#Cc1c(NS(=O)(=O)N2CC[C@@H](F)C2)ccc(F)c1Oc1ccc2ncn(-c3ccc(N4CCN(C(=O)C5CCN(c6ccc7c(c6)CN(C6CCC(=O)NC6=O)C7=O)CC5)CC4)cc3)c(=O)c2c1 (single isomer, unassigned) [Example 241]	> 500 nM
N#Cc1c(NS(=O)(=O)N2CC[C@@H](F)C2)ccc(F)c1Oc1ccc2ncn(-c3cnc(N4CC5(CN(CC6CCN(c7ccc8c(c7)C(=O)N(C7CCC(=O)NC7=O)C8=O)CC6)C5)C4)nc3)c(=O)c2c1 (stereo partly drawn) [Example 134]	50 to 500 nM
COc1cc(N2CC(CN3CCN(c4ccc(-n5cnc6ccc(Oc7c(F)ccc(NS(=O)(=O)N8CC[C@@H](F)C8)c7C#N)cc6c5=O)cc4)CC3)C2)cc2c1C(=O)N([C@H]1CCC(=O)NC1=O)C2 [Example 236]	50 to 500 nM
N#Cc1c(NS(=O)(=O)N2CC[C@@H](F)C2)ccc(F)c1Oc1ccc2ncn(-c3ccc(N4CCN(CCN5CCC(c6ccc7c(c6)CN(C6CCC(=O)NC6=O)C7=O)CC5)CC4)cc3)c(=O)c2c1 (stereo partly drawn) [Example 176]	50 to 500 nM
N#Cc1c(NS(=O)(=O)N2CC[C@@H](F)C2)ccc(F)c1Oc1ccc2ncn(-c3ccc(N4CCC(CCCN5CCN(c6ccc7c(c6)C(=O)N(C6CCC(=O)NC6=O)C7=O)CC5)CC4)nc3)c(=O)c2c1 (stereo partly drawn) [Example 167]	50 to 500 nM
N#Cc1c(NS(=O)(=O)N2CC[C@@H](F)C2)ccc(F)c1Oc1ccc2ncn(-c3ccc(N4CC(CN5CCC(c6ccc7c(c6)CN([C@H]6CCC(=O)NC6=O)C7=O)CC5)C4)cc3)c(=O)c2c1 [Example 189]	50 to 500 nM

Asked: DC50 lookup needed for N#Cc1c(NS(=O)(=O)N2CC[C@@H](F)C2)ccc(F)c1Oc1ccc2ncn(-c3ccc(N4CCN(c5ccc6c(c5)CN(C5CCC(=O)NC5=O)C6=O)CC4)nc3)c(=O)c2c1 (stereo partly drawn) [Example 143] , thanks.
Given back: ≤ 5 nM

Asked: DC50 lookup needed for N#Cc1c(NS(=O)(=O)N2CC[C@@H](F)C2)ccc(F)c1Oc1ccc2ncn(-c3ccc(N4CCC(CN5CCC6(CCC(c7ccc8c(c7)CN([C@H]7CCC(=O)NC7=O)C8=O)CC6)CC5)CC4)cc3)c(=O)c2c1 [Example 262] , thanks.
Given back: 5 to 50 nM

Asked: DC50 lookup needed for N#Cc1c(NS(=O)(=O)N2CC[C@@H](F)C2)ccc(F)c1Oc1ccc2ncn(-c3ccc(C4CCN(CC5CCN(c6ccc7c(c6)CN([C@H]6CCC(=O)NC6=O)C7=O)CC5)C4)cc3)c(=O)c2c1 (stereo partly drawn) [Example 208] , thanks.
Given back: 5 to 50 nM
